Target: T1, human GIP receptor (human) (UniProt P48546)
T1 sequence (looked up): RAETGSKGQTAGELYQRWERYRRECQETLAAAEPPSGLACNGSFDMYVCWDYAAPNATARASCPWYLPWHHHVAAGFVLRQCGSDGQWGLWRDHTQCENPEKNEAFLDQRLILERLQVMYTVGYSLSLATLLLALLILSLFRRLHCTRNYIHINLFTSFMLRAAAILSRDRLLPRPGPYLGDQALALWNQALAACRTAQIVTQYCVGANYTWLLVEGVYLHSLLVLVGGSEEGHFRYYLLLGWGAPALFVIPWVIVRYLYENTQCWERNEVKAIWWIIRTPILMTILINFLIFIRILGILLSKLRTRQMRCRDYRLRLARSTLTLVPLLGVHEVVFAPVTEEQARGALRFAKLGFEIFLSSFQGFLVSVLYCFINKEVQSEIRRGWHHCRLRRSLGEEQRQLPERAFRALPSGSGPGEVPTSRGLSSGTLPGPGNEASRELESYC
Assay: cell-based or functional assay
result.type: cAMP Rel EC50 (receptor-expressing HEK-293 cells, 1% HSA)

binder | value.reported
YXQGTXTSDXXIXLDXKAQXNFIEXLIEGGPSSGEPEPEEG (synthetic construct; SITE 2: note = 2-Aminoisobutyric Acid; SITE 6: note = alpha-methyl-2-fluoro-L-phenylalanine; SITE 10: note = 3-(4-Pyridyl)-L-alanine; SITE 11: note = alpha-methyl-L-serine; SITE 13: note = alpha-methyl-leucine; SITE 16: note = L-ornithine; SITE 17: note = Lysine is chemically mo) [Example 474] | 0.743 nM
HXQGTXTSDXXIXLDXKAQXAFIEYLLEGGPSSGEPEPE (synthetic construct; SITE 2: note = 2-Aminoisobutyric Acid; SITE 6: note = alpha-methyl-2-fluoro-L-phenylalanine; SITE 10: note = 3-(4-Pyridyl)-L-alanine; SITE 11: note = alpha-methyl-L-serine; SITE 13: note = alpha-methyl-leucine; SITE 16: note = L-ornithine; SITE 17: note = Lysine is chemically mo) [Example 479] | 7.11 nM
YXQGTXTSDXSIXLDXKAQXXFIEYLLEGGPSSGEPPPEEG (synthetic construct; SITE 2: note = 2-Aminoisobutyric Acid; SITE 6: note = alpha-methyl-2-fluoro-L-phenylalanine; SITE 10: note = 3-(4-Pyridyl)-L-alanine; SITE 13: note = alpha-methyl-leucine; SITE 16: note = L-ornithine; SITE 17: note = Lysine is chemically modified through conjugation of the epsil) [Example 494] | 1.08 nM
YXQGTXTSDXXIXLDXKAQXXFIEXLIEGGPSSGEPEPSEG (synthetic construct; SITE 2: note = 2-Aminoisobutyric Acid; SITE 6: note = alpha-methyl-2-fluoro-L-phenylalanine; SITE 10: note = 3-(4-Pyridyl)-L-alanine; SITE 11: note = alpha-methyl-L-serine; SITE 13: note = alpha-methyl-leucine; SITE 16: note = L-ornithine; SITE 17: note = Lysine is chemically mo) [Example 481] | 1.19 nM
YXQGTXTSDXXIXLDXKAQXTFIEXLIEGGPSSGEPPPE (synthetic construct; SITE 2: note = 2-Aminoisobutyric Acid; SITE 6: note = alpha-methyl-2-fluoro-L-phenylalanine; SITE 10: note = 3-(4-Pyridyl)-L-alanine; SITE 11: note = alpha-methyl-L-serine; SITE 13: note = alpha-methyl-leucine; SITE 16: note = L-ornithine; SITE 17: note = Lysine is chemically mo) [Example 457] | 0.881 nM
YXQGTXTSDXSIXLDXKAQXXFIEYLIEGGPSSGEPPPEEG (synthetic construct; SITE 2: note = 2-Aminoisobutyric Acid; SITE 6: note = alpha-methyl-2-fluoro-L-phenylalanine; SITE 10: note = 3-(4-Pyridyl)-L-alanine; SITE 13: note = alpha-methyl-leucine; SITE 16: note = L-ornithine; SITE 17: note = Lysine is chemically modified through conjugation of the epsil) [Example 477] | 1.44 nM
YXQGTXTSDYSILLDKKAQXAFIEYLEEGGPSSGAPPPEEG (non-natural residues, C18 diacid acylation, C-terminal amide; synthetic construct; SITE 2: note = 2-Aminoisobutyric Acid; SITE 6: note = alpha-methyl-2-fluoro-L-phenylalanine; SITE 17: note = Lysine is chemically modified through conjugation of the epsilon-amino group of the Lysine side chain with (gamma-Glu)2-CO-(CH2)16-CO2H; SITE 20: note = 2-Aminoisobutyric) [Example 471] | 5.45 nM
YXQGTXTSDXXIXLDXKAQXXFIEXLIEGGPSSGEPPPE (synthetic construct; SITE 2: note = 2-Aminoisobutyric Acid; SITE 6: note = alpha-methyl-2-fluoro-L-phenylalanine; SITE 10: note = 3-(4-Pyridyl)-L-alanine; SITE 11: note = alpha-methyl-L-serine; SITE 13: note = alpha-methyl-leucine; SITE 16: note = L-ornithine; SITE 17: note = Lysine is chemically mo) [Example 453] | 1.95 nM
YXQGTXTSDXXIXLDXKAQXXFIEXLIEGGPSSGEPPPEEG (synthetic construct; SITE 2: note = 2-Aminoisobutyric Acid; SITE 6: note = alpha-methyl-2-fluoro-L-phenylalanine; SITE 10: note = 3-(4-Pyridyl)-L-alanine; SITE 11: note = alpha-methyl-L-serine; SITE 13: note = alpha-methyl-leucine; SITE 16: note = L-ornithine; SITE 17: note = Lysine is chemically mo) [Example 462] | 1.62 nM
